The reported numbers originate from ChEMBL document CHEMBL3044924.

What mortality at 600 µg/mL was measured for each of the following?
# Test system: Myzus persicae
# procedureText: Insecticidal activity against adult Myzus persicae (green peach aphid) in compound treated cabbage leaves assessed as mortality at 600 mg/L at 25 degC and 85% RH for 24 hr
# Type: functional
Field: numeric (%). Do not append units.

Q: Read off the recorded mortality at 600 µg/mL for CCCCNC(=O)c1ccc(Cl)cc1C(=O)NN=Cc1ccc(F)cc1
Result: 97.7

Q: Read off the recorded mortality at 600 µg/mL for Cc1ccc(C=NNC(=O)c2cc(Cl)ccc2C(=O)NC2CCCCC2)o1
Result: 93

Q: # return recorded mortality at 600 µg/mL for input CC(C)NC(=O)c1ccc(Cl)cc1C(=O)NN=Cc1cccs1
Result: 98.7

Q: Name the recorded mortality at 600 µg/mL of the item CCCCNC(=O)c1ccc(Cl)cc1C(=O)NN=Cc1ccccc1F in your answer.
Result: 94.6

Q: Identify measured mortality at 600 µg/mL corresponding to Cc1ccc(C=NNC(=O)c2cc(Cl)ccc2C(=O)NC(C)C)o1
Result: 96.4

Q: Report measured mortality at 600 µg/mL; entry is O=C(NN=Cc1ccccc1F)c1cc(Cl)ccc1C(=O)NC1CCCCC1
Result: 90.2

Q: Give the measured mortality at 600 µg/mL for O=C(NN=Cc1cccs1)c1cc(Cl)ccc1C(=O)NC1CCCCC1
Result: 98.8

Q: Given CC(C)NC(=O)c1ccc(Cl)cc1C(=O)NN=Cc1ccc(O)cc1 , respond with its mortality at 600 µg/mL.
Result: 100

Q: Give recorded mortality at 600 µg/mL. CC(C)NC(=O)c1ccc(Cl)cc1C(=O)NN=Cc1ccco1
Result: 100

Q: Input Cc1ccc(C=NNC(=O)c2cc(Cl)ccc2C(=O)NC(C)C)s1 , output reported mortality at 600 µg/mL.
Result: 100

Q: Read off the recorded mortality at 600 µg/mL for Cc1ccsc1C=NNC(=O)c1cc(Cl)ccc1C(=O)NC1CCCCC1
Result: 90.6

Q: Output mortality at 600 µg/mL of CCCCNC(=O)c1ccc(Cl)cc1C(=O)NN=Cc1ccco1
Result: 100

Q: Respond only with mortality at 600 µg/mL recorded for O=C(NN=Cc1ccc(O)cc1)c1cc(Cl)ccc1C(=O)NC1CCCCC1
Result: 92.6

Q: Tell me measured mortality at 600 µg/mL for CC(C)NC(=O)c1ccc(Cl)cc1C(=O)NN=Cc1ccc(F)cc1 please.
Result: 91.3

Q: Quote mortality at 600 µg/mL reported for O=C(NN=Cc1ccccc1Cl)c1cc(Cl)ccc1C(=O)NC1CCCCC1 please.
Result: 100

Q: Provide only the value of recorded mortality at 600 µg/mL for CCCCNC(=O)c1ccc(Cl)cc1C(=O)NN=Cc1ccc(C(F)(F)F)cc1
Result: 96.6

Q: Determine from records and report mortality at 600 µg/mL for Cc1ccsc1C=NNC(=O)c1cc(Cl)ccc1C(=O)NC(C)C
Result: 90.6

Q: Could you please provide reported mortality at 600 µg/mL for CCCCNC(=O)c1ccc(Cl)cc1C(=O)NN=Cc1cccs1 ? Thanks!
Result: 98.6

Q: State its mortality at 600 µg/mL for this molecule: CC(C)NC(=O)c1ccc(Cl)cc1C(=O)NN=Cc1ccccc1Cl
Result: 92.9

Q: Query mortality at 600 µg/mL for Cc1nn(-c2ccccc2)c(Cl)c1C=NNC(=O)c1cc(Cl)ccc1C(=O)NC1CCCCC1
Result: 91.9

Q: Give the reported mortality at 600 µg/mL for this molecule. O=C(NN=Cc1ccco1)c1cc(Cl)ccc1C(=O)NC1CCCCC1
Result: 100
